Protocol Text: chemical stability: retention (%) after heating at 60° C. for 4 hours, by HPLC
Assay type: physicochemical
Details: pH 9, pH 9
Listed below: remaining at 4 h values for each entry.

{"Compound": "N=C(N)NCCCC[C@H](O)CC(=O)NC(OCCO)C(=O)NCCCCNCCCN (stereo partly drawn)", "remaining at 4 h / %": 97.7}
{"Compound": "COC(NC(=O)C[C@@H](O)CCCCNC(=N)N)C(=O)NCCCCNCCCN (single isomer, unassigned; (-)) [22 (-), (-)-11-O-methylspergualin]", "remaining at 4 h / %": 97.6}
{"Compound": "N=C(N)NCCCC[C@H](O)CC(=O)NC(O)C(=O)NCCCCNCCCN (single isomer, unassigned; (-)) [(-)-spergualin, reference compound]", "remaining at 4 h / %": 0}
{"Compound": "CCCCOC(NC(=O)C[C@@H](O)CCCCNC(=N)N)C(=O)NCCCCNCCCN (stereo partly drawn)", "remaining at 4 h / %": 97.1}
{"Compound": "CCCCOC(NC(=O)CCCCCCNC(=N)N)C(=O)NCCCCNCCCN (stereo not drawn)", "remaining at 4 h / %": 98}
{"Compound": "N=C(N)NCCCCCCC(=O)NC(OCc1ccccc1)C(=O)NCCCCNCCCN (stereo not drawn)", "remaining at 4 h / %": 99}
{"Compound": "COC(NC(=O)CCCCCCNC(=N)N)C(=O)NCCCCNCCCN (racemic)", "remaining at 4 h / %": 97.5}
{"Compound": "N=C(N)NCCCCCCC(=O)NC(OCCO)C(=O)NCCCCNCCCN (stereo not drawn)", "remaining at 4 h / %": 97.5}
{"Compound": "N=C(N)NCCCC[C@H](O)CC(=O)NC(OCc1ccccc1)C(=O)NCCCCNCCCN (stereo partly drawn)", "remaining at 4 h / %": 95.9}
